Read-out: Cytochrome P450 2C19 (Homo sapiens) (UniProt P33261)
Sequence (P33261 whole entry, looked up): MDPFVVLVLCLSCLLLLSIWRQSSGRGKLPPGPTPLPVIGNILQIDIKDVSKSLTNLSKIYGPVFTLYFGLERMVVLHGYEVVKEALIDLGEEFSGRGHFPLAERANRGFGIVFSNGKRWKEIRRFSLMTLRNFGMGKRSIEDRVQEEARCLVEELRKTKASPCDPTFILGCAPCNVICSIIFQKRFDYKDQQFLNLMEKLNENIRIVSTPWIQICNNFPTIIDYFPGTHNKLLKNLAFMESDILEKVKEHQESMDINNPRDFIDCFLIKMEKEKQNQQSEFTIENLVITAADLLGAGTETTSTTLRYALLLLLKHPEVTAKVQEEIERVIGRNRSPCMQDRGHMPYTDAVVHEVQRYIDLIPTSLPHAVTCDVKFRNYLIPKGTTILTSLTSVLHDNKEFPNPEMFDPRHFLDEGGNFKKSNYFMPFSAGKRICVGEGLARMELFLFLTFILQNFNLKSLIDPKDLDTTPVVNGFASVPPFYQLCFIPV
Test: LTEA_HepaRG_CYP2C19: Life Technologies and Expression Analysis (LTEA) Assay for CYP2C19 using HepaRG (AID 2283482)
Conditions: mRNA level, 48 h; actives raise or lower the signal
Procedure: LTEA_HepaRG is a cell based, multiplexed-readout assay that uses HepaRG, a human liver cell line, with measurements taken at 48 hours after chemical dosing on a 96-well plate.LTEA_HepaRG_CYP2C19 is one of 102 assay component(s) measured in the LTEA HepaRG cell culture assay. It is a marker of NR mediated metabolism.Data from the assay component LTEA_HepaRG_CYP2C19 was analyzed into 1 endpoint. […]
Calls of active or inactive are those of the source. Rule for the calls: active = hit-call score of the fitted dose curve at least 0.9, where 1 is the maximum; inactive = score below 0.9.
Answer with one of the outcomes Y = active, N = inactive

How did this test come out for "C=C(C)[C@H]1Cc2c(ccc3c2O[C@@H]2COc4cc(OC)c(OC)cc4[C@@H]2C3=O)O1" ?
Y

Same thing, different compound: CCOC(=O)CC(SP(=O)(OC)OC)C(=O)OCC (configuration not stated)
N

Same thing, different compound: CCOP(=O)(SC(C)CC)N1CCSC1=O (configuration not stated)
N

Same thing, different compound: "C[Si](Cn1cncn1)(c1ccc(F)cc1)c1ccc(F)cc1"
Y

Same thing, different compound: "CCOP(=S)(OCC)Oc1ccc2c(C)c(Cl)c(=O)oc2c1"
Y

Same thing, different compound: "CNC(=O)ON=C(SC)C(=O)N(C)C"
N

Same thing, different compound: "CCCOCC(=Nc1ccc(Cl)cc1C(F)(F)F)n1ccnc1"
Y

Same thing, different compound: "CNC(=O)Oc1cccc2c1OC(C)(C)O2"
N

----------
experiment: Tanguay_ZF_120hpf_TRUN_legacy: (Legacy) Oregon State University Tanguay Lab 120 Hour Post-fertilization zebrafish Assay for Truncated Body (AID 2283655)
Inconclusive results are not listed. Calls of active or inactive are those of the source. The calls were made as follows: active = hit-call score of the fitted dose curve at least 0.9, where 1 is the maximum; inconclusive = response in the unintended direction; inactive = score below 0.9.
Answer with one of the outcomes T for active, F for inactive

Please review the entries below; each comes with its answer.
>  <molecule>
S=C1NCCN1

>  <assigned.label>
F

$$$$
>  <molecule>
Nc1nc(N)nc(NC2CC2)n1

>  <assigned.label>
F

$$$$
>  <molecule>
CCOP(=O)(SC(C)CC)N1CCSC1=O (stereo not drawn)

>  <assigned.label>
F

$$$$

How did this test come out for "COc1ccc(C(=CC(=O)N2CCOCC2)c2ccc(Cl)cc2)cc1OC" ?
T

----------
assay: CCTE_Simmons_MITO_basal_resp_rate: CCTE's HepG2 Seahorse XF Respirometric Screening Assay at Basal Respiratory State, Simmons Lab (AID 2284001); conditions: actives raise or lower the signal
Active and inactive are the calls of the source. Rule for the calls: active = hit-call score of the fitted dose curve at least 0.9, where 1 is the maximum; inactive = score below 0.9.
Answer with one of the outcomes active, inactive

Please review the entries below; each comes with its answer.
>  <compound>
CC[C@H](C)[C@H]1O[C@]2(C=C[C@@H]1C)C[C@@H]1C[C@@H](C/C=C(\C)[C@@H](O[C@H]3C[C@H](OC)[C@@H](O[C@H]4C[C@H](OC)[C@@H](NC)[C@H](C)O4)[C@H](C)O3)[C@@H](C)/C=C/C=C3\CO[C@@H]4[C@H](O)C(C)=C[C@@H](C(=O)O1)[C@]34O)O2

>  <assigned.label>
active

$$$$
>  <compound>
CCCOCC(=Nc1ccc(Cl)cc1C(F)(F)F)n1ccnc1

>  <assigned.label>
inactive

$$$$

Continue with the next compound.
How did this test come out for C#CCC1=C(C)C(OC(=O)C2C(C=C(C)C)C2(C)C)CC1=O (stereo not drawn) ?
active
